Target: T1, recombinant cynomolgus monkey PD-1 expressed with a C-terminal myc-myc-hexahistidine tag (cynomolgus monkey (Macaca fascicularis))
T1 construct: monomeric; also called MfPD-1-MMH
T1 chain: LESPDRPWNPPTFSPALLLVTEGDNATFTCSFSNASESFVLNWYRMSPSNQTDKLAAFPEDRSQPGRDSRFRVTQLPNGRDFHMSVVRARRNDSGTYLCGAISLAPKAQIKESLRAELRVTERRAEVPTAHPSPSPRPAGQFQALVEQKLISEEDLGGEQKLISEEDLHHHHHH
Test: SPR, mAb captured, 25C;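 also: rates from fitting Biacore data for PD-1 binding to anti-PD-1 antibodies with a 1:1 model, KD computed as koff/kon and t½ as ln2/(60·koff)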
Here, each record is paired with measured t½ data.
I only need the number, in min, no unit after it.

binder: H1M7789N (antibody, mouse IgG1, V domains shown, Human variable regions, mouse IgG1 Fc) VH: EVQLLESGGGLVQPGGSLRLSCSASGFTFSSYTMNWVRQAPGKGLEWVSGISDTGGNTYYTDSVKGRFTVSRDNSKNTLSLQMNSLRAEDTAVYYCAKDQGGSYPYYFHYWGQGSLVTVSS VL: DIQMTQSPSSLSASVGDRVTITCRASQSISSYLIWYQQKPGTAPKFLIYAASSLQSGVPSRFSGCGSGTDFTLTISSLQPEDFATYYCQQSYSTPPITFGQGTRLEIK
quantity unit: min
t½: 94

Given H2aM7795N (antibody, mouse IgG2a, V domains shown, Human variable regions, mouse IgG2a Fc; also called H2M7795N) VH: EVQVVESGGGLVEPGRSLRLSCKASGFTFDDYAMHWVRQTPGKALEWVSGINWSGNNIGYADSVKGRFTISKDDAKNSLYLQMNSLRPEDTALYYCTKDISITGTLDAFDVWGQGTMVTVSS VL: DIQMTQSPISVSASVGDRVTITCRASQGISNWLAWYQQKPGIAPKLLIYSASSLQSGVPSRFRGSGSGTDFTLTIGSLQPEDFATYYCQQAHSFPLTFGGGTKVEIK , state its recorded t½.
13

// t½ lookup, key: H4H7795N2 (antibody, human IgG4 S228P, kappa, V domains shown) VH: EVQVVESGGGLVEPGRSLRLSCKASGFTFDDYAMHWVRQTPGKALEWVSGISWSGNNIGYADSVKGRFTISKDDAKNSLYLQMNSLRPEDTALYYCTKDISITGTLDAFDVWGQGTMVTVSS VL: DIQMTQSPISVSASVGDRVTITCRASQGISNWLAWYQQKPGIAPKLLIYSASSLQSGVPSRFRGSGSGTDFTLTIGSLQPEDFATYYCQQAHSFPLTFGGGTKVEIKR
8
